test system: HL-60 (TB) leukemia; assay: Cytotoxicity, HL-60(TB) leukemia; details: read-out: cytotoxicity GI50, HL-60(TB); 50% growth inhibition; average of two determinations; 8640 min; Hydrochloride, 8640 min
Structures can show the parent of a compound that is named as a salt.
Reported metric: GI50 (nM)
Just the number in nM, nothing appended.

Reported GI50 of COc1cc(CNc2ccc(SC)cc2)cc(OC)c1OC [110e, Hydrochloride] : 3290

Lookup result for CCc1ccc(NCc2cc(OC)c(OC)c(OC)c2)cc1 [110b, Hydrochloride] ; measured GI50: 245

For record CCOc1ccc(NCc2cc(OC)c(OC)c(OC)c2)cc1 [110d, Hydrochloride] the listed GI50 is 448

The measured GI50 associated with COc1ccc(NCc2cc(OC)c(OC)c(OC)c2)cc1 [110c, Hydrochloride] reads 834

So for COc1cc(CNc2ccc(C)cc2)cc(OC)c1OC.Cl [110a, Hydrochloride] , the logged GI50 turned out to be 72.2

###

Hi there, I'd appreciate the recorded GI50 for every entry that follows.
tested on: COLO 205 colon cancer; test: Cytotoxicity, COLO 205; settings: read-out: cytotoxicity GI50, COLO 205; 50% growth inhibition; average of two determinations; 8640 min; Hydrochloride, 8640 min
Structures can show the parent of a compound that is named as a salt.
Number in µM, nothing else.

# value of GI50, COLO 205 colon cancer, item COc1cc(CNc2ccc(SC)cc2)cc(OC)c1OC [110e, Hydrochloride] = 3.6

Form field GI50 for item CCc1ccc(NCc2cc(OC)c(OC)c(OC)c2)cc1 [110b, Hydrochloride] on COLO 205 colon cancer: 0.352

The recorded GI50 with COLO 205 colon cancer for COc1ccc(NCc2cc(OC)c(OC)c(OC)c2)cc1 [110c, Hydrochloride] was 1.66

Readout GI50 for COc1cc(CNc2ccc(C)cc2)cc(OC)c1OC.Cl [110a, Hydrochloride] , test system COLO 205 colon cancer, was 0.219

// compound CCOc1ccc(NCc2cc(OC)c(OC)c(OC)c2)cc1 [110d, Hydrochloride] , assay COLO 205 colon cancer, GI50 value: 0.538

###

test system: DMS 273 small cell lung cancer; assay: Cytotoxicity, DMS 273; conditions: read-out: cytotoxicity GI50, DMS 273; 50% growth inhibition; average of two determinations; 8640 min; Hydrochloride, 8640 min
Structures can show the parent of a compound that is named as a salt.
Reported metric: GI50
Write the numeric value and follow it with the unit.

Memo: COc1cc(CNc2ccc(SC)cc2)cc(OC)c1OC [110e, Hydrochloride] , reported GI50: 4910 nM

Per the records, this compound ( COc1ccc(NCc2cc(OC)c(OC)c(OC)c2)cc1 [110c, Hydrochloride] ) has GI50 equal to 534 nM

Lookup result for CCOc1ccc(NCc2cc(OC)c(OC)c(OC)c2)cc1 [110d, Hydrochloride] ; measured GI50: 961 nM

Reported GI50 for CCc1ccc(NCc2cc(OC)c(OC)c(OC)c2)cc1 [110b, Hydrochloride] was 818 nM

Input COc1cc(CNc2ccc(C)cc2)cc(OC)c1OC.Cl [110a, Hydrochloride] . Output GI50: 104 nM

###

experiment: Stability in DMSO solution at room temperature (NMR); format: physicochemical; details: protected from light, four weeks, read-out: formation of the cis isomer (1a)
Reported metric: degraded at […]

Notebook: COc1ccc(/C=C/c2cc(OC)c(OC)c(OC)c2)cc1O [compound 1b, reference compound] , degraded at […] read as ~10%
